- Test system: NCI-H226
- experiment_notes: NCI tumour cell line growth inhibition, 48 h
Active and inactive are the calls of the source. No stated cut-off is given here; in the data, active = GI50 up to about 1.1 µM and inactive = higher.
The categories you may choose from are T (active), F (inactive)

As a guide, the following entries are already answered.
>>> label_class("C=CCn1c(=O)c2ccccc2[n+]2c(-c3cccc([N+](=O)[O-])c3)csc12")
"F"
>>> label_class("COc1ccc(C2Oc3c(cccc3-c3c(-c4ccc(O)cc4)oc4cc(O)cc(O)c4c3=O)C(=O)C2O)cc1O (stereo not drawn)")
"F"
>>> label_class("COC(=O)[C@@H]1c2c(oc3cc(CO)cc(O)c3c2=O)C=C[C@H]1O")
"F"

Moving on to another compound below.
Q) Status in this test for O=C(O)C[C@@H]1[C@@H](O)[C@@H](O)CN2C(=O)c3ccccc3[C@H]12 ?
A) F

Reference for the values: ChEMBL document CHEMBL1201862
